Source of measurements: patent US6977265B2

Counter-ions that a name gives are not always drawn.
endpoint: melting point

Some compounds with recorded melting point:
- compound: "COc1cc(NC(=O)N[C@@H]2CN(C(C)=O)C[C@H]2N2CCC(Cc3ccc(Cl)cc3)CC2)cc(OC)c1OC (racemic) (as salt: hydrochloride)"
  melting point: "155 to 161 °C"
- compound: "COc1cc(NC(=O)N[C@@H]2CCCC[C@H]2N2CCC(Cc3ccc(Cl)cc3)CC2)cc(OC)c1OC (racemic)"
  melting point: "196.9 to 200 °C"

Task item: Please look up its melting point: COc1cc(NC(=O)N[C@@H]2CN(CC(N)=O)C[C@H]2N2CCC(Cc3ccc(Cl)cc3)CC2)cc(OC)c1OC (racemic) (as salt: hydrochloride)
Reply: 160 to 165 °C

Task item: Please look up its melting point: COc1cc(NC(=O)N[C@@H]2C[C@H](CO)C[C@H]2N2CCC(Cc3ccc(Cl)cc3)CC2)cc(OC)c1OC (racemic) (as salt: hydrochloride)
Reply: 138 to 143 °C

Task item: Please look up its melting point: COc1cc(NC(=O)N[C@@H]2CN(S(=O)(=O)N(C)C)C[C@H]2N2CCC(Cc3ccc(Cl)cc3)CC2)cc(OC)c1OC (racemic) (as salt: hydrochloride)
Reply: 141 to 143 °C

Task item: Please look up its melting point: COc1cc(NC(=O)N[C@@H]2CNC[C@H]2N2CCC(Cc3ccc(Cl)cc3)CC2)cc(OC)c1OC (racemic) (as salt: hydrochloride) [Example 9, dihydrochloride]
Reply: 157 to 170 °C
